# target system: 5-hydroxytryptamine receptor 2A (Homo sapiens, UniProt P28223)
# Sequence (P28223 whole entry): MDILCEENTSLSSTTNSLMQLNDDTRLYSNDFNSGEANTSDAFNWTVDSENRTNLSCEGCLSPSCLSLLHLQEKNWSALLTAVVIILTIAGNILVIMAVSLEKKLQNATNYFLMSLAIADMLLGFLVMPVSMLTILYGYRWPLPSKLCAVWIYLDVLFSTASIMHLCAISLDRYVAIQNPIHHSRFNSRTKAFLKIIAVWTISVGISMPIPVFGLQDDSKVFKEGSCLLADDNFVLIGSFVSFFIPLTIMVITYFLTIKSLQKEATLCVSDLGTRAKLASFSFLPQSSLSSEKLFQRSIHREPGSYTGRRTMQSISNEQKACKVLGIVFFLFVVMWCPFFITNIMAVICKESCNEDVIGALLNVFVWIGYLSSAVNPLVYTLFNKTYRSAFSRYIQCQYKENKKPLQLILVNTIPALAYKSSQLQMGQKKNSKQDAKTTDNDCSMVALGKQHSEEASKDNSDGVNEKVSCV
# test description: Modulation of human 5HT2A expressed in HEK293T cells co-transfected with Galphaq-RLuc8, Ggamma1-GFP2 and Gbeta1 assessed as dissociation of Galphaq from Ggamma1 preincubated for 1 hr followed by addition of coelenterazine 400a substrate and measured after 15 mins by BRET assay relative to 5-HT
# Assay type: cell-based
# condition info: filed as modulator, time 75.0 min
Provide the reported Efficacy of each item.
Hi! Could you send only the number? It should be in %, unit omitted.

Recorded Efficacy of `CN(C)CCc1cn(C)c2cccc(O)c12` , please.
73

Recorded Efficacy of `CN(C)CCc1cn(CC2CC2)c2cccc(O)c12` , please.
29

Recorded Efficacy of `CCn1cc(CCN(C)C)c2c(O)cccc21` , please.
65

Recorded Efficacy of `CCN(C)CCc1cn(C)c2cccc(O)c12` , please.
66

Recorded Efficacy of `CN(C)CCc1cn(CCF)c2cccc(O)c12` , please.
48

Recorded Efficacy of `CC(C)N(C)CCc1cn(C)c2cccc(O)c12` , please.
85

Recorded Efficacy of `CN(CCc1cn(C)c2cccc(O)c12)CC1CC1` , please.
55

Recorded Efficacy of `CN(C)CCc1c[nH]c2cccc(O)c12` , please.
82

###

Provide the reported pIC50 of each item.
# target system: 5-hydroxytryptamine receptor 2C (Homo sapiens)
# Sequence (P28335 whole entry): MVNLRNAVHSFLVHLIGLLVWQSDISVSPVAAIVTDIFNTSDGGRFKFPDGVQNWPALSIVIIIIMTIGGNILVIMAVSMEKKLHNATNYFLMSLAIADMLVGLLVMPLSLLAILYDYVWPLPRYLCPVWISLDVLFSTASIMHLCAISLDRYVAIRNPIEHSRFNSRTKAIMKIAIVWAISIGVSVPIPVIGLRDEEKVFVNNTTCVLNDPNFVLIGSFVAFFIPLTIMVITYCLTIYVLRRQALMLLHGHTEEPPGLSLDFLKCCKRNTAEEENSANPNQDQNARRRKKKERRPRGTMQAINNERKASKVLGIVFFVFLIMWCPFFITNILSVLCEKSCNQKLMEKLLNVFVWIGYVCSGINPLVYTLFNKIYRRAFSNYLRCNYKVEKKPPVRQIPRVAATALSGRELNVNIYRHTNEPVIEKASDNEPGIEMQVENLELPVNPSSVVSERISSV
# test description: Modulation of human 5HT2C expressed in HEK293T cells co-transfected with Galphaq-RLuc8, Ggamma1-GFP2 and Gbeta1 assessed as dissociation of Galphaq from Ggamma1 preincubated for 1 hr followed by addition of coelenterazine 400a substrate and measured after 15 mins by BRET assay
// scale note: pIC50 = -log10(conc_M); give the bare number

Recorded pIC50 of `CN(C)CCc1cn(C)c2cccc(O)c12` , please.
8.02

Recorded pIC50 of `CN(C)CCc1cn(CCF)c2cccc(O)c12` , please.
8.57

Recorded pIC50 of `CCn1cc(CCN(C)C)c2c(O)cccc21` , please.
9.05

###

# target system: 5-hydroxytryptamine receptor 2B (Homo sapiens, UniProt P41595)
# Sequence (P41595 whole entry): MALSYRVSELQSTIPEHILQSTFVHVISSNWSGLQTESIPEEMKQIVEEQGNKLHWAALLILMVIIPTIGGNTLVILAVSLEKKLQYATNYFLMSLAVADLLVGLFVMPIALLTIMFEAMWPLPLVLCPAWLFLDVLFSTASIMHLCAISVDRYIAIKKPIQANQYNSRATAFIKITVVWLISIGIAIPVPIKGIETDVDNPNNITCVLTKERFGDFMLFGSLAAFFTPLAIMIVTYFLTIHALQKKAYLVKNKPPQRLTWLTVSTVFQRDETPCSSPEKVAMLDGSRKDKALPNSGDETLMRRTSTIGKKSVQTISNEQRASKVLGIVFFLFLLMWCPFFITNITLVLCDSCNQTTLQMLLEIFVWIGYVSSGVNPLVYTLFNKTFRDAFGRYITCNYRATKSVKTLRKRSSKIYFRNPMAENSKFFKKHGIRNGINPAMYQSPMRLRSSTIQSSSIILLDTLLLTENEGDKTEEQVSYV
# test description: Modulation of human 5HT2B expressed in HEK293T cells co-transfected with Galphaq-RLuc8, Ggamma1-GFP2 and Gbeta1 assessed as dissociation of Galphaq from Ggamma1 preincubated for 1 hr followed by addition of coelenterazine 400a substrate and measured after 15 mins by BRET assay relative to 5-HT
# Format: cell-based
# condition info: filed as modulator, time 75.0 min
Provide the reported Efficacy of each item.
Hi! Could you send only the number? It should be in %, unit omitted.

Recorded Efficacy of `CN(C)CCc1c[nH]c2cccc(O)c12` , please.
63

Recorded Efficacy of `CN(C)CCc1cn(C)c2cccc(O)c12` , please.
40

Recorded Efficacy of `CC(C)N(C)CCc1cn(C)c2cccc(O)c12` , please.
83

Recorded Efficacy of `CCN(C)CCc1cn(C)c2cccc(O)c12` , please.
44

###

# target system: 5-hydroxytryptamine receptor 2B (Homo sapiens)
# test description: Modulation of human 5HT2B expressed in HEK293T cells co-transfected with Galphaq-RLuc8, Ggamma1-GFP2 and Gbeta1 assessed as dissociation of Galphaq from Ggamma1 preincubated for 1 hr followed by addition of coelenterazine 400a substrate and measured after 15 mins by BRET assay
# Assay type: cell-based
# condition info: read-out: IC50
result type: IC50 (nM)
Hi! Could you send only the number? It should be in nM, unit omitted.

Recorded IC50 of `CN(C)CCc1cn(C)c2cccc(O)c12` , please.
31.7
